Molecular target: Neuronal acetylcholine receptor; alpha4/beta2 (Homo sapiens, UniProt P17787+P43681)
Sequence (P17787 whole entry): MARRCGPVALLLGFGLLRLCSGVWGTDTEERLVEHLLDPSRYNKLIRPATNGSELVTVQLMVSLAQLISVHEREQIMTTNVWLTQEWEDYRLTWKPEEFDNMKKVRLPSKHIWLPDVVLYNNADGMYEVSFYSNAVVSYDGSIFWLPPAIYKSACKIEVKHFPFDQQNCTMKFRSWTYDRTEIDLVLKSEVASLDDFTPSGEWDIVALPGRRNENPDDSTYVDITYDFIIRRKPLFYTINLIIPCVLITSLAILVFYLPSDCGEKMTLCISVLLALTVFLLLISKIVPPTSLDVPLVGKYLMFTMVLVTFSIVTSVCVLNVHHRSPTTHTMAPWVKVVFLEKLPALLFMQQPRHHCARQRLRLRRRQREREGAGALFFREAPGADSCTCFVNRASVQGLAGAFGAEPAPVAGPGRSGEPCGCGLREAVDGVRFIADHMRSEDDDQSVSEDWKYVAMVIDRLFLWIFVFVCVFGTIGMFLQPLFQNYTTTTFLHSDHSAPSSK
Sequence (P43681 whole entry): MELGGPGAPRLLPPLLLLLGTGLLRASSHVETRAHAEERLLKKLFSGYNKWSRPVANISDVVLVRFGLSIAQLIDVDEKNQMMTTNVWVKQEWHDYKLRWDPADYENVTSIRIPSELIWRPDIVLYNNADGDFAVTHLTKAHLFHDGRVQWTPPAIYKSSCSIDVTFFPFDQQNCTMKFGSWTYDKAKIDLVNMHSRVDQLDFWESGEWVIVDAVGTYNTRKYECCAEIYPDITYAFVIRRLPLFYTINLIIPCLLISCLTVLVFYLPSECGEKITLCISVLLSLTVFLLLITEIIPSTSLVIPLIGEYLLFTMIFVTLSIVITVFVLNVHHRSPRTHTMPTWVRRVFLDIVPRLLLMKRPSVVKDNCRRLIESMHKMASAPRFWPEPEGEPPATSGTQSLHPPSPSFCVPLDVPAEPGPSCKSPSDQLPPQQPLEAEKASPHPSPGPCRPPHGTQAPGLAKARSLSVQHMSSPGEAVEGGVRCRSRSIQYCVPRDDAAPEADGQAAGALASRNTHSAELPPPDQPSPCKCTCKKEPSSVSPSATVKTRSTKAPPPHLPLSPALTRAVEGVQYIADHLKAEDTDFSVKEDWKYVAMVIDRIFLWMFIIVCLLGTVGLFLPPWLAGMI
Assay: Agonist activity at alpha4beta2 nAChR in human SH-EP1 cells assessed as calcium flux by calcium4-based FLIPR assay relative to nicotine
Format: functional, cell-based
Rule: Emax below 40% gives 1 (yes). Equal to or above 40% gives 0 (no).

Here's what some known entries look like.
[
  {
    "MOLECULE": "O=C(c1ccc(Br)o1)N1C[C@H]2CN[C@@H](C2)C1",
    "MEASUREMENT_TARGET": "Neuronal acetylcholine receptor; alpha4/beta2 (Homo sapiens, UniProt P17787+P43681)",
    "CLASS_NAME": "0 (no)"
  },
  {
    "MOLECULE": "N#Cc1coc(C(=O)N2CC3CNCC3C2)c1 (centres undefined)",
    "MEASUREMENT_TARGET": "Neuronal acetylcholine receptor; alpha4/beta2 (Homo sapiens, UniProt P17787+P43681)",
    "CLASS_NAME": "1 (yes)"
  },
  {
    "MOLECULE": "O=C(c1cnco1)N1CC2CNCC2C1 (centres undefined)",
    "MEASUREMENT_TARGET": "Neuronal acetylcholine receptor; alpha4/beta2 (Homo sapiens, UniProt P17787+P43681)",
    "CLASS_NAME": "0 (no)"
  },
  {
    "MOLECULE": "O=C(c1ccncc1)N1CC2CNCC(C2)C1",
    "MEASUREMENT_TARGET": "Neuronal acetylcholine receptor; alpha4/beta2 (Homo sapiens, UniProt P17787+P43681)",
    "CLASS_NAME": "1 (yes)"
  },
  {
    "MOLECULE": "O=C(c1cccnc1)N1CC2CNCC2C1 (centres undefined)",
    "MEASUREMENT_TARGET": "Neuronal acetylcholine receptor; alpha4/beta2 (Homo sapiens, UniProt P17787+P43681)",
    "CLASS_NAME": "0 (no)"
  }
]

# check: Emax < 40% for O=C(c1ccccc1)N1CC2CNCC2C1 (centres undefined)
1 (yes)

# check: Emax < 40% for Cc1ncoc1C(=O)N1CC2CNCC2C1 (centres undefined)
0 (no)

* * *

Target: Neuronal acetylcholine receptor; alpha4/beta2 (Homo sapiens, UniProt P17787+P43681)
Test: Binding affinity to alpha4beta2 nAChR
Format: protein-complex assay
ASSAY_METRIC: pKi
Scale: pKi equals -log10([C]), with [C] in mol/L.

In the examples that follow, each entry is paired with its recorded pKi.
[
  {
    "COMPOUND": "c1cncc(N2CC3CNCC(C3)C2)c1",
    "pKi": 9.70
  },
  {
    "COMPOUND": "CN[C@@H](C)C/C=C/c1cccnc1",
    "pKi": 7.62
  },
  {
    "COMPOUND": "CCC(=O)C1=CCCN(C)C1 [ARECOLON]",
    "pKi": 8.24
  }
]

// query pKi value for entry C1=C(c2cccnc2)C2CCC(CC1)N2 (stereo not given)
9.57

// query pKi value for entry CN1CCC=C(c2ccc(Cl)nc2)C1
8.66

* * *

Target: Neuronal acetylcholine receptor; alpha4/beta2 (Homo sapiens, UniProt P17787+P43681)
Assay: Partial agonist activity at alpha4beta2 nAChR in human SH-EP1 cells assessed as calcium flux by calcium4-based FLIPR assay relative to nicotine
Format: functional, cell-based
Quick reference for Emax among some compounds
# unit: % | format: bare number

In the examples that follow, each entry is paired with its recorded Emax.
[
  {
    "SMI": "N#Cc1ccoc1C(=O)N1CC2CNCC(C2)C1",
    "MEASUREMENT_TARGET": "Neuronal acetylcholine receptor; alpha4/beta2 (Homo sapiens, UniProt P17787+P43681)",
    "ASSAY_METRIC": "Emax",
    "MEASURED_VALUE": 8
  },
  {
    "SMI": "N#Cc1coc(C(=O)N2CC3CNCC(C3)C2)c1",
    "MEASUREMENT_TARGET": "Neuronal acetylcholine receptor; alpha4/beta2 (Homo sapiens, UniProt P17787+P43681)",
    "ASSAY_METRIC": "Emax",
    "MEASURED_VALUE": 20
  },
  {
    "SMI": "O=C(c1occc1F)N1CC2CNCC(C2)C1",
    "MEASUREMENT_TARGET": "Neuronal acetylcholine receptor; alpha4/beta2 (Homo sapiens, UniProt P17787+P43681)",
    "ASSAY_METRIC": "Emax",
    "MEASURED_VALUE": 15
  },
  {
    "SMI": "O=C(c1cc(Br)co1)N1CC2CNCC(C2)C1",
    "MEASUREMENT_TARGET": "Neuronal acetylcholine receptor; alpha4/beta2 (Homo sapiens, UniProt P17787+P43681)",
    "ASSAY_METRIC": "Emax",
    "MEASURED_VALUE": 34
  },
  {
    "SMI": "Cc1ccoc1C(=O)N1CC2CNCC(C2)C1",
    "MEASUREMENT_TARGET": "Neuronal acetylcholine receptor; alpha4/beta2 (Homo sapiens, UniProt P17787+P43681)",
    "ASSAY_METRIC": "Emax",
    "MEASURED_VALUE": 9
  },
  {
    "SMI": "O=C(c1cc(Cl)co1)N1CC2CNCC(C2)C1",
    "MEASUREMENT_TARGET": "Neuronal acetylcholine receptor; alpha4/beta2 (Homo sapiens, UniProt P17787+P43681)",
    "ASSAY_METRIC": "Emax",
    "MEASURED_VALUE": 11
  },
  {
    "SMI": "N#Cc1ccc(C(=O)N2CC3CNCC(C3)C2)o1",
    "MEASUREMENT_TARGET": "Neuronal acetylcholine receptor; alpha4/beta2 (Homo sapiens, UniProt P17787+P43681)",
    "ASSAY_METRIC": "Emax",
    "MEASURED_VALUE": 58
  },
  {
    "SMI": "O=C(c1ccc(Br)o1)N1CC2CNCC(C2)C1",
    "MEASUREMENT_TARGET": "Neuronal acetylcholine receptor; alpha4/beta2 (Homo sapiens, UniProt P17787+P43681)",
    "ASSAY_METRIC": "Emax",
    "MEASURED_VALUE": 23
  }
]

// query Emax value for entry O=C(c1occc1Cl)N1CC2CNCC(C2)C1
3
